# assayed_system: Rho Kinase
# method_summary: ROCK kinase inhibition assay (Rho Kinase Activity, isoform not given)
# experimental_conditions: Table 15, mostly given as ranges
attribute_measured: Ki

Below, each entry is followed by its recorded Ki result.
>>> value("COc1ccc(CNC(=O)c2ccc([C@@H]3C[C@H]3C(=O)Nc3ccc4cnccc4c3)c(F)c2)cc1 (relative stereo) [Example E193]")
"6 to 8 nM"
>>> value("O=C(OCc1ccccc1)c1ccc(C2CC2C(=O)Nc2ccc3c(O)nccc3c2)cc1 (stereo not shown) [Example E100.1]")
"25 nM"
>>> value("O=C(NCc1ccc2ccncc2c1)c1ccc(C2CC2C(=O)Nc2ccc3cnccc3c2)cc1F (stereo not shown) [Example E195.1]")
"4 to 7 nM"
>>> value("CC(C)(C)OC(=O)N1CCC(CNC(=O)c2ccc(C3CC3C(=O)Nc3ccc4cnccc4c3)cc2)C1 (stereo not shown) [Example E20.1]")
"0.5 to 2 nM"
>>> value("Cc1cncc2ccc(NC(=O)C3CC3c3ccc(C(=O)NCc4cccnc4)cc3)cc12 (stereo not shown) [Example E34]")
"7 to 14 nM"
>>> value("O=C(OCc1ccccc1)c1ccc([C@@H]2C[C@H]2C(=O)Nc2ccc3cnccc3c2)cc1 [Example E115]")
"40 to 75 nM"
>>> value("O=C(NCCN1CCCCC1)c1ccc(C2CC2C(=O)Nc2ccc3cnccc3c2)cc1 (stereo not shown) [Example E39]")
"5 to 7 nM"
>>> value("O=C(Nc1ccc2cnccc2c1)[C@@H]1C[C@H]1c1ccc(CNCc2cccnc2)cc1 (relative stereo) [Example E160]")
"250 to 800 nM"

stdin: For the compound O=C(NCc1cccnc1)c1ccc(C2CC2C(=O)Nc2cc3ccncc3cc2Br)cc1 (stereo not shown) [Example E32] , what Ki is on record?
stdout: 2.5 to 4.5 nM

stdin: For the compound O=C(NCc1ccc(OC(F)(F)F)cc1)c1ccc(C2CC2C(=O)Nc2ccc3cnccc3c2)cc1 (stereo not shown) [Example E15.1] , what Ki is on record?
stdout: 65 to 110 nM

stdin: For the compound O=C(NCc1ccncc1)c1cccc(C2CC2C(=O)Nc2ccc3cnccc3c2)c1 (stereo not shown) [Example E174] , what Ki is on record?
stdout: 0.15 to 0.3 nM

---

Reported pKi by item:
# assayed_system: ROCK1 (Homo sapiens, UniProt Q13464)
# Sequence (Q13464 whole entry, species assumed): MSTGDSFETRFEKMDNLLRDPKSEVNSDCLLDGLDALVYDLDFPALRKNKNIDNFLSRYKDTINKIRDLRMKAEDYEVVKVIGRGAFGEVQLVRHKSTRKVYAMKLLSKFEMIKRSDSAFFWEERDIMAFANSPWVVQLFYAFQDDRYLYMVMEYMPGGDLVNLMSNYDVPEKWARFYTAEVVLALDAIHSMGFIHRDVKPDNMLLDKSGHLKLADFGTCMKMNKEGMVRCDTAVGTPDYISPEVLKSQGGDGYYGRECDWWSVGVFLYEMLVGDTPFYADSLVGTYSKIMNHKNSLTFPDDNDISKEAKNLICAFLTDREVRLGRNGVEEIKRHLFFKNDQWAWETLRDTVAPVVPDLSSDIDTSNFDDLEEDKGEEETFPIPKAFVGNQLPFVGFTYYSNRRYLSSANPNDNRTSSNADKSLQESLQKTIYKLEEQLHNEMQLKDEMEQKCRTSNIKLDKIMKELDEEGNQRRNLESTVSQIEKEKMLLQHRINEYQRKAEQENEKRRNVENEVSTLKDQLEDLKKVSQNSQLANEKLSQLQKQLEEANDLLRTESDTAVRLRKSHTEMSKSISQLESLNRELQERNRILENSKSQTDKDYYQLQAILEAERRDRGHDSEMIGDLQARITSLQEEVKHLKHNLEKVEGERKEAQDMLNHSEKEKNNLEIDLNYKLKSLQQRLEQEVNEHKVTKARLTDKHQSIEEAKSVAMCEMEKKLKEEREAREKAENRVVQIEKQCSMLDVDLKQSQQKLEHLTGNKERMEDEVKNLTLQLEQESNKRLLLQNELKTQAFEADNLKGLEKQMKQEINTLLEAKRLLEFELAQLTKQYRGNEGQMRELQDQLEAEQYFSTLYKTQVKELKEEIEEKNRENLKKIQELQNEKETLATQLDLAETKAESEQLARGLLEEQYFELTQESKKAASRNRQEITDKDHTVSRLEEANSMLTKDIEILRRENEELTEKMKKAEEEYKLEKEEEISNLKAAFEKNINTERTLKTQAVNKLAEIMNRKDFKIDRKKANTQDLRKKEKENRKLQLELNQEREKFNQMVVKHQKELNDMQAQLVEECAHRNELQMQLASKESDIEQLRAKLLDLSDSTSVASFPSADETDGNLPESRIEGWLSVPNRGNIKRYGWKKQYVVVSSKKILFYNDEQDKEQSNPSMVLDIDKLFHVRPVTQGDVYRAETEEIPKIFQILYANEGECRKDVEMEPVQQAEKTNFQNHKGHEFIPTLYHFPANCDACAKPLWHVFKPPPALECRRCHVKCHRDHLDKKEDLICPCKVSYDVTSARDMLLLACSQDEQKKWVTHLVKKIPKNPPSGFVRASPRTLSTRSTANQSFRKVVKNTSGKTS
# method_summary: ROCK kinase inhibition assay, ROCK1 enzyme;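 note: kinase reaction with 0.5 µM final ATP, 75 min at room temperature, remaining ATP read by luminescence, percent of DMSO-only control minus background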
# Format: biochemical
# experimental_conditions: ROCK1, Table 17
Counter-ions that a name gives are not always drawn.
// scale note: pKi = -log10(conc_M); give the bare number

>>> value("O=C(Nc1ccc2cnccc2c1)[C@@H]1C[C@H]1c1ccc(I)cc1 (relative stereo) [drawing 670]")
6.57
>>> value("O=C(Nc1ccc2cnccc2c1)[C@@H]1C[C@H]1c1ccc(S(=O)(=O)N2CCNCC2)cc1 (relative stereo) [dihydrochloride]")
7.32
>>> value("O=C(Nc1ccc2cnccc2c1)[C@@H]1C[C@H]1c1ccc(S(=O)(=O)NCc2cccnc2)cc1 (relative stereo)")
7.60
>>> value("O=C(Nc1ccc2cnccc2c1)[C@@H]1C[C@H]1c1ccc(F)c(S(=O)(=O)Nc2ccccc2)c1 [drawing 674]")
6.82

stdin: For the compound O=C(Nc1ccc2cnccc2c1)[C@@H]1C[C@H]1c1ccc(F)c(S(=O)(=O)Nc2ccccn2)c1 [drawing 673] , what pKi is on record?
stdout: 7.82
